Below, each of the compounds is paired with its reported viability, T/C value.
Test system: 186277-243-T-J2-PDC complex spheroid growth, % test/control
measurement.notes: Anticancer human tumor 186277-243-T-J2-PDC patient-derived colon adenocarcinoma cell line growth inhibition [Asc]
conditions: second compound 0.1 µM; first compound 0.0316 µM; stronger effect = lower value
Your answer should be a plain number; it is taken to be in %.

A selection of reference data follows.
compound: O=C(c1ccc(F)c(F)c1Nc1ccc(I)cc1F)N1CC(O)([C@@H]2CCCCN2)C1 + CNC(C)C(=O)NC1CN(S(=O)(=O)c2cccc(S(=O)(=O)N3CCC4CCC(C(=O)NC(c5ccccc5)c5ccccc5)N4C(=O)C(NC(=O)C(C)NC)C3)c2)CCC2CCC(C(=O)NC(c3ccccc3)c3ccccc3)N2C1=O
viability, T/C (%): 98.8
//
compound: NC1CCC(NC2CC2c2ccccc2)CC1 (stereo not drawn) + Cc1c(S(C)(=O)=O)c(-c2cc(F)cc(N3CCN(c4ccc(NS(=O)(=O)c5ccc(NC(CCN6CCC(C(=O)OCCCP(=O)(O)O)CC6)CSc6ccccc6)c(S(=O)(=O)C(F)(F)F)c5)cc4)CC3)c2)c(-c2ccc(Cl)cc2)n1C(C)C
viability, T/C (%): 94.4

## Input Tell me its viability, T/C given C=C(F)C(=O)N1CCN(c2nc(OCC3CCCN3C)nc3c2CCN(c2cccc4cccc(Cl)c24)C3)CC1CC#N (stereo not drawn) + Cc1c(S(C)(=O)=O)c(-c2cc(F)cc(N3CCN(c4ccc(NS(=O)(=O)c5ccc(NC(CCN6CCC(C(=O)OCCCP(=O)(O)O)CC6)CSc6ccccc6)c(S(=O)(=O)C(F)(F)F)c5)cc4)CC3)c2)c(-c2ccc(Cl)cc2)n1C(C)C as the entry.
## Output 109

----------
System: 186277-243-T-J2-PDC complex spheroid growth, % test/control
measurement.notes: Anticancer human tumor 186277-243-T-J2-PDC cell line growth inhibition [Asc];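 also: spheroids exposed to agents for 7 days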;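 as to viability, T/C: 100% = DMSO vehicle control wells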
conditions: second compound 0.01 µM; first compound 0.0316 µM; stronger effect = lower value
Text: Multicellular complex tumor spheroid response to apoptosis pathway targeting inhibitors Alrizomadlin, Pelcitoclax, and Dasminapant in combination with a variety of drugs and investigational agents in selected tumor cell lines […] Compounds. […] If the clinical Cmax for an agent had not been determined, the highest concentration tested was 10 microM. […]
Each item that follows carries a reported viability, T/C.
Your answer is read as %, so omit the unit and give the number.

compound: COc1c(OCCCN2CCOCC2)ccc2c3n(c(=NC(=O)c4cnc(N)nc4)nc12)CCN3 + CNC(C)C(=O)NC1CN(S(=O)(=O)c2cccc(S(=O)(=O)N3CCC4CCC(C(=O)NC(c5ccccc5)c5ccccc5)N4C(=O)C(NC(=O)C(C)NC)C3)c2)CCC2CCC(C(=O)NC(c3ccccc3)c3ccccc3)N2C1=O
target.or.system: 186277-243-T-J2-PDC complex spheroid growth, % test/control
quantity.unit: %
viability, T/C: 62.4

Attention now turns to another entry.
## Input Give viability, T/C for C=CC(=O)N1CCN(c2nc(=O)n(-c3c(C)ccnc3C(C)C)c3nc(-c4c(O)cccc4F)c(F)cc23)C(C)C1 (configuration not stated) + CNC(C)C(=O)NC1CN(S(=O)(=O)c2cccc(S(=O)(=O)N3CCC4CCC(C(=O)NC(c5ccccc5)c5ccccc5)N4C(=O)C(NC(=O)C(C)NC)C3)c2)CCC2CCC(C(=O)NC(c3ccccc3)c3ccccc3)N2C1=O tested on 186277-243-T-J2-PDC complex spheroid growth, % test/control.
## Output 102

----------
Tested on: 186277-243-T-J2-PDC complex spheroid growth, % test/control
measurement.notes: Anticancer human tumor 186277-243-T-J2-PDC cell line growth inhibition [Asc]; active means viability on the fitted dose curve at most 10% of control; inactive means the rest;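 also: spheroids exposed to agents for 7 days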
conditions: second compound 1 µM; first compound 0.3 µM
Source text: Multicellular complex tumor spheroid response to apoptosis pathway targeting inhibitors Alrizomadlin, Pelcitoclax, and Dasminapant in combination with a variety of drugs and investigational agents in selected tumor cell lines […] Compounds. […] If the clinical Cmax for an agent had not been determined, the highest concentration tested was 10 microM. […]
Pick from T = active, F = inactive when you respond.

The examples below pair each entry with its known result.
compound: Cc1nc(N2CCC3(CC2)COC(C)C3N)c(CO)nc1Sc1ccnc(N)c1Cl (stereo not drawn) + CNC(C)C(=O)NC1CN(S(=O)(=O)c2cccc(S(=O)(=O)N3CCC4CCC(C(=O)NC(c5ccccc5)c5ccccc5)N4C(=O)C(NC(=O)C(C)NC)C3)c2)CCC2CCC(C(=O)NC(c3ccccc3)c3ccccc3)N2C1=O
group.label: F

compound: CCN1C(C(=O)NC23CCC(C(=O)O)(CC2)CC3)C(c2cccc(Cl)c2F)C2(C(=O)Nc3cc(Cl)ccc32)C12CCCCC2 (stereo not drawn) + Cc1c(S(C)(=O)=O)c(-c2cc(F)cc(N3CCN(c4ccc(NS(=O)(=O)c5ccc(NC(CCN6CCC(C(=O)OCCCP(=O)(O)O)CC6)CSc6ccccc6)c(S(=O)(=O)C(F)(F)F)c5)cc4)CC3)c2)c(-c2ccc(Cl)cc2)n1C(C)C
group.label: F

Moving on to the next compound.
## Input Returns: the outcome recorded for NC(=O)C(=Cn1cnc(-c2cc(C(F)(F)F)cc(C(F)(F)F)c2)n1)c1cncnc1 + Cc1c(S(C)(=O)=O)c(-c2cc(F)cc(N3CCN(c4ccc(NS(=O)(=O)c5ccc(NC(CCN6CCC(C(=O)OCCCP(=O)(O)O)CC6)CSc6ccccc6)c(S(=O)(=O)C(F)(F)F)c5)cc4)CC3)c2)c(-c2ccc(Cl)cc2)n1C(C)C in this assay.
## Output T

----------
Tested on: 186277-243-T-J2-PDC complex spheroid growth, % test/control
measurement.notes: Anticancer human tumor 186277-243-T-J2-PDC cell line growth inhibition [Asc];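 also: spheroids exposed to agents for 7 days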
conditions: curve of first compound; second compound 0.1 µM
readout.name: IC50

Solved entries (count: 3):
compound: C=CC(=O)N1CCN(c2nc(=O)n(-c3c(C)ccnc3C(C)C)c3nc(-c4c(O)cccc4F)c(F)cc23)C(C)C1 (stereo unspecified) + CNC(C)C(=O)NC1CN(S(=O)(=O)c2cccc(S(=O)(=O)N3CCC4CCC(C(=O)NC(c5ccccc5)c5ccccc5)N4C(=O)C(NC(=O)C(C)NC)C3)c2)CCC2CCC(C(=O)NC(c3ccccc3)c3ccccc3)N2C1=O
IC50: > 10000 nM
//
compound: CNC(C)C(=O)NC1CN(S(=O)(=O)c2cccc(S(=O)(=O)N3CCC4CCC(C(=O)NC(c5ccccc5)c5ccccc5)N4C(=O)C(NC(=O)C(C)NC)C3)c2)CCC2CCC(C(=O)NC(c3ccccc3)c3ccccc3)N2C1=O (stereo unspecified) + Cc1c(S(C)(=O)=O)c(-c2cc(F)cc(N3CCN(c4ccc(NS(=O)(=O)c5ccc(NC(CCN6CCC(C(=O)OCCCP(=O)(O)O)CC6)CSc6ccccc6)c(S(=O)(=O)C(F)(F)F)c5)cc4)CC3)c2)c(-c2ccc(Cl)cc2)n1C(C)C
IC50: > 1000 nM
//
compound: C#Cc1c(F)ccc2cc(O)cc(-c3ncc4c(N5CC6CCC(C5)N6)nc(OCC56CCCN5CC(F)C6)nc4c3F)c12 (stereo unspecified) + CNC(C)C(=O)NC1CN(S(=O)(=O)c2cccc(S(=O)(=O)N3CCC4CCC(C(=O)NC(c5ccccc5)c5ccccc5)N4C(=O)C(NC(=O)C(C)NC)C3)c2)CCC2CCC(C(=O)NC(c3ccccc3)c3ccccc3)N2C1=O
IC50: 452 nM

## Input Give IC50 for this entry on 186277-243-T-J2-PDC complex spheroid growth, % test/control: CCN1CCN(Cc2ccc(Nc3ncc(F)c(-c4cc(F)c5nc(C)n(C(C)C)c5c4)n3)nc2)CC1 + Cc1c(S(C)(=O)=O)c(-c2cc(F)cc(N3CCN(c4ccc(NS(=O)(=O)c5ccc(NC(CCN6CCC(C(=O)OCCCP(=O)(O)O)CC6)CSc6ccccc6)c(S(=O)(=O)C(F)(F)F)c5)cc4)CC3)c2)c(-c2ccc(Cl)cc2)n1C(C)C
## Output > 1000 nM

## Input Look up 186277-243-T-J2-PDC complex spheroid growth, % test/control data: IC50 of O=C(c1cc(Cc2n[nH]c(=O)c3ccccc23)ccc1F)N1CCN(C(=O)C2CC2)CC1 + CNC(C)C(=O)NC1CN(S(=O)(=O)c2cccc(S(=O)(=O)N3CCC4CCC(C(=O)NC(c5ccccc5)c5ccccc5)N4C(=O)C(NC(=O)C(C)NC)C3)c2)CCC2CCC(C(=O)NC(c3ccccc3)c3ccccc3)N2C1=O , then report it.
## Output > 10000 nM

## Input Give IC50 for this entry on 186277-243-T-J2-PDC complex spheroid growth, % test/control: O=C(c1ccc(F)c(F)c1Nc1ccc(I)cc1F)N1CC(O)([C@@H]2CCCCN2)C1 + CNC(C)C(=O)NC1CN(S(=O)(=O)c2cccc(S(=O)(=O)N3CCC4CCC(C(=O)NC(c5ccccc5)c5ccccc5)N4C(=O)C(NC(=O)C(C)NC)C3)c2)CCC2CCC(C(=O)NC(c3ccccc3)c3ccccc3)N2C1=O
## Output 134 nM
